Could you please report measured EC50 for the items listed next?
system: SARS-CoV-2; assay: Antiviral activity against SARS-CoV-2 infected in African Green monkey Vero E6 cells assessed as reduction in viral plaques incubated for 48 hrs by […]; assay type: functional, organism-based; conditions: Severe acute respiratory syndrome coronavirus 2, Vero C1008, 48 h
Numbers only, in nM.

Examples with their reported EC50 follow.
In [3]: df
Out[3]:
                                   molecule  unit_info  recorded_number
0  COc1cccc2[nH]c(C(=O)N[C@@H](CC3CC3)C(=O)N[C@H](C=O)C[C@@H]3CCNC3=O)cc12         nM              700
1  CC(C)C[C@H](NC(=O)OCCc1cccc(Cl)c1)C(=O)N[C@H](C=O)C[C@@H]1CCNC1=O         nM             1470
2  O=C(N[C@@H](CC1CC1)C(=O)N[C@@H](C[C@@H]1CCNC1=O)C(O)S(=O)(=O)O)OCc1ccccc1 (stereo partly drawn)         nM              900
3  O=C[C@H](C[C@@H]1CCNC1=O)NC(=O)[C@H](CC1CCCCC1)NC(=O)OCc1ccccc1         nM             1200
4  CC(C)C[C@H](NC(=O)O[C@H](C)c1ccccc1)C(=O)N[C@H](C=O)C[C@@H]1CCNC1=O         nM             1400
5  O=C[C@H](C[C@@H]1CCNC1=O)NC(=O)[C@H](CC1CC1)NC(=O)OCCc1cccc(Cl)c1         nM              800

We now examine a further molecule.
Challenge: For the molecule C[C@H](OC(=O)N[C@@H](CC1CC1)C(=O)N[C@H](C=O)C[C@@H]1CCNC1=O)c1ccccc1 , report EC50.
Response given: 2000

###

Could you please report measured pEC50 for the items listed next?
tested on: SARS-CoV-2; assay: Antiviral activity against SARS-CoV-2 infected in African Green monkey Vero E6 cells assessed as reduction in viral plaques incubated for 48 hrs by […]; assay type: functional, organism-based; conditions: Severe acute respiratory syndrome coronavirus 2, Vero C1008, 48 h
Numbers only, as −log10 of the molar value.

I'm hoping you can list pEC50 for every compound here, please.
1. O=C[C@H](C[C@@H]1CCNC1=O)NC(=O)[C@H](CC1CC1)NC(=O)OCc1cccc(F)c1
2. CC(C)C[C@H](NC(=O)O[C@@H](C)c1ccccc1)C(=O)N[C@H](C=O)C[C@@H]1CCNC1=O
3. C[C@H](OC(=O)N[C@@H](CC1CC1)C(=O)N[C@@H](C[C@@H]1CCNC1=O)C(O)S(=O)(=O)O)c1ccccc1 (stereo partly drawn)

Response given:
5.96
5.96
5.92

###

Could you please report measured EC50 for the items listed next?
tested on: SARS-CoV-2; experiment: Antiviral activity against SARS-CoV-2 infected in African Green monkey Vero E6 cells assessed as reduction in viral plaques in presence of efflux inhibitor CP-100356 incubated for 48 hrs by […]; type: functional, organism-based; settings: Severe acute respiratory syndrome coronavirus 2, Vero C1008, 48 h
Answers are plain numbers, in nM.

>>> print(df.to_string())
                                   molecule  recorded_number
0  O=C[C@H](C[C@@H]1CCNC1=O)NC(=O)[C@H](CC1CC1)NC(=O)OCc1ccccc1              320
1  O=C[C@H](C[C@@H]1CCNC1=O)NC(=O)[C@H](CC1CC1)NC(=O)OCCc1cccc(Cl)c1              280
2  COc1cccc2[nH]c(C(=O)N[C@@H](CC3CC3)C(=O)N[C@H](C=O)C[C@@H]3CCNC3=O)cc12              400

I'm hoping you can list EC50 for every molecule here, please.
1. O=C(N[C@@H](CC1CC1)C(=O)N[C@@H](C[C@@H]1CCNC1=O)C(O)S(=O)(=O)O)OCc1ccccc1 (stereo partly drawn)
2. C[C@H](OC(=O)N[C@@H](CC1CC1)C(=O)N[C@H](C=O)C[C@@H]1CCNC1=O)c1ccccc1
3. COc1cccc2[nH]c(C(=O)N[C@@H](CC(C)C)C(=O)N[C@H](C=O)C[C@@H]3CCNC3=O)cc12
4. C[C@H](OC(=O)N[C@@H](CC1CC1)C(=O)N[C@@H](C[C@@H]1CCNC1=O)C(O)S(=O)(=O)O)c1ccccc1 (stereo partly drawn)
5. O=C(N[C@@H](CC1CC1)C(=O)N[C@@H](C[C@@H]1CCNC1=O)C(O)S(=O)(=O)O)OCc1cccc(F)c1 (stereo partly drawn)
6. CC(C)C[C@H](NC(=O)OCc1ccccc1)C(=O)N[C@H](C=O)C[C@@H]1CCNC1=O
7. COc1cccc2[nH]c(C(=O)N[C@@H](CC3CC3)C(=O)N[C@@H](C[C@@H]3CCNC3=O)C(O)S(=O)(=O)O)cc12 (stereo partly drawn)
8. O=C(N[C@@H](CC1CC1)C(=O)N[C@@H](C[C@@H]1CCNC1=O)C(O)S(=O)(=O)O)OCCc1cccc(Cl)c1 (stereo partly drawn)

Response given:
[270, 1200, 250, 500, 190, 320, 290, 180]

I'm hoping you can list EC50 for every molecule here, please.
1. COc1cccc2[nH]c(C(=O)N[C@@H](CC(C)C)C(=O)N[C@@H](C[C@@H]3CCNC3=O)C(O)S(=O)(=O)O)cc12 (stereo partly drawn)
2. O=C[C@H](C[C@@H]1CCNC1=O)NC(=O)[C@H](CC1CC1)NC(=O)OCc1cccc(F)c1

Response given:
1. 320
2. 250

Reference source for all entries: ChEMBL document CHEMBL4825695
